experimental.target: BTK C481S (Homo sapiens, UniProt Q06187, C481S)
Sequence (Q06187 whole entry C481S): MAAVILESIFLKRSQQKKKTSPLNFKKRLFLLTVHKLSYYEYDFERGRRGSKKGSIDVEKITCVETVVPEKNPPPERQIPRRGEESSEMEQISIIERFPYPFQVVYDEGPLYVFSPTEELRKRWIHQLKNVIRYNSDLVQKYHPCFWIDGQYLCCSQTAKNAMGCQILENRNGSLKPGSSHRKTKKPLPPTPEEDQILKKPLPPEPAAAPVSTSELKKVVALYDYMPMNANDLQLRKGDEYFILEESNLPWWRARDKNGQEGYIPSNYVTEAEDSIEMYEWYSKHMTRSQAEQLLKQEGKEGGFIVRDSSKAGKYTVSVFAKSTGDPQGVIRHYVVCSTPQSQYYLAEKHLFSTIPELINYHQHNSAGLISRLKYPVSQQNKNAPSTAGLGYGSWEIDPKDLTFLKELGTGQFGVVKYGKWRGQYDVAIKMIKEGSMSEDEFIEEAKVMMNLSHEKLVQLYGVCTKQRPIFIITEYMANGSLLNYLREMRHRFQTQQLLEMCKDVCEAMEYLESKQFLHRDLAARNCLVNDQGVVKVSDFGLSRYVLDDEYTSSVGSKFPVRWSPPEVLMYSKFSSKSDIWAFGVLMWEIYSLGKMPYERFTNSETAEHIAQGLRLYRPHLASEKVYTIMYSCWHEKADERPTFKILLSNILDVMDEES
protocol.summary: BTK C481S in vitro inhibition
measured.metric: IC50

C=CC(=O)Nc1cccc(-c2csc3c(=O)cc(N4CCOCC4)oc23)c1 > 45 µM
COc1cc(NC(C)=O)cc(-c2csc3c(=O)cc(N4CCOCC4)oc23)c1 > 45 µM
CCCCC/C=C/C(=O)Nc1cccc(-c2csc3c(=O)cc(N4CCOCC4)oc23)c1 > 45 µM
C=CS(=O)(=O)N1CCCc2ccc(-c3csc4c(=O)cc(N5CCOCC5)oc34)cc21 10 to 45 µM

Field request: IC50 | item: `C/C=C/C(=O)N1CCOc2ccc(-c3csc4c(=O)cc(N5CCOCC5)oc34)cc21`
> 45 µM

I would be grateful if you could share the reported IC50 for `O=C(C1=CCCC1)N1CCOc2ccc(-c3csc4c(=O)cc(N5CCOCC5)oc34)cc21` .
10 to 45 µM

Requested field: IC50. Item: `C=CS(=O)(=O)N(c1cc(-c2csc3c(=O)cc(N4CCOCC4)oc23)ccc1OC)S(=O)(=O)C=C`
10 to 45 µM

###

Parameter IC50: see the listing below.
experimental.target: BTK C481S (Homo sapiens, UniProt Q06187, C481S)
protocol.summary: BTK C481S in vitro inhibition

molecule	experimental.target	IC50
C=CS(=O)(=O)N(CCS(=O)(=O)N(c1cc(-c2csc3c(=O)cc(N4CCOCC4)oc23)ccc1OC)S(=O)(=O)C=C)c1cc(-c2csc3c(=O)cc(N4CCOCC4)oc23)ccc1OC [Compound 51]	BTK C481S (Homo sapiens, UniProt Q06187, C481S)	10 to 45 µM
C=CS(=O)(=O)N(C)c1cccc(-c2csc3c(=O)cc(N4CCOCC4)oc23)c1 [Compound 47]	BTK C481S (Homo sapiens, UniProt Q06187, C481S)	> 45 µM
C=CS(=O)(=O)N(C)c1cc(-c2csc3c(=O)cc(N4CCOCC4)oc23)ccc1OC [Compound 48]	BTK C481S (Homo sapiens, UniProt Q06187, C481S)	> 45 µM

Name the reported IC50 value associated with the molecule C=CC(=O)Nc1cc(-c2csc3c(=O)cc(N4CCOCC4)oc23)ccc1OC [Compound 36]
1 to 10 µM

// returns reported IC50 for input C=CC(=O)N1CCOc2ccc(-c3csc4c(=O)cc(N5CCOCC5)oc34)cc21 [Compound 32]
10 to 45 µM

Which value of IC50 has been reported for C=CC(=O)Nc1cccc(-c2csc3c(=O)cc(N4CCNCC4)oc23)c1 [Compound 27] in the records?
10 to 45 µM

Field request: IC50 | item: C=CS(=O)(=O)N(c1cccc(-c2csc3c(=O)cc(N4CCOCC4)oc23)c1)S(=O)(=O)C=C [Compound 50]
10 to 45 µM

###

# IC50 per entry for PI3K beta (Homo sapiens, UniProt P42338)

Recorded IC50, per entry:
O=c1cc(N2CCNCC2)oc2c(-c3ccc4c(c3)OCCO4)csc12 10000 to 45000 nM
CN1CCN(c2cc(=O)c3scc(-c4cc5c(c(C(=O)NCc6cccnc6)c4)OCCO5)c3o2)CC1 1000 to 10000 nM
C=CS(=O)(=O)Nc1cc(-c2csc3c(=O)cc(N4CCOCC4)oc23)ccc1OC < 500 nM
CN(C)C(=O)c1cc2cnc(Nc3cccc(-c4csc5c(=O)cc(N6CCOCC6)oc45)c3)nc2n1C1CCCC1 < 500 nM
C=CS(=O)(=O)N(c1cc(-c2csc3c(=O)cc(N4CCOCC4)oc23)ccc1OC)S(=O)(=O)C=C < 500 nM
C=CS(=O)(=O)N(C)c1cccc(-c2csc3c(=O)cc(N4CCOCC4)oc23)c1 < 500 nM

Shifting focus to the compound that follows.
Sample `CN(C)C(=O)c1cc2cnc(N3CCOc4cc(-c5csc6c(=O)cc(N7CCOCC7)oc56)ccc43)nc2n1C1CCCC1` — what was its IC50?
< 500 nM

###

experimental.target: CDK4 cyclinD1 (Homo sapiens, UniProt P11802)
Sequence (P11802 whole entry): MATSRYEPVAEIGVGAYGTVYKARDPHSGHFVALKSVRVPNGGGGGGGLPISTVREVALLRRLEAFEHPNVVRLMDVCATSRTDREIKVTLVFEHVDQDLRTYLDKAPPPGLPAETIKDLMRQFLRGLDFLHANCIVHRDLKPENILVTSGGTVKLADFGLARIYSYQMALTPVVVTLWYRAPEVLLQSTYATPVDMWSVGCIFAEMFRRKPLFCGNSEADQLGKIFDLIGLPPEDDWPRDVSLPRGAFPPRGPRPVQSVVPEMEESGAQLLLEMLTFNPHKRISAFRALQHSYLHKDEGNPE
Sequence (P24385 whole entry partner): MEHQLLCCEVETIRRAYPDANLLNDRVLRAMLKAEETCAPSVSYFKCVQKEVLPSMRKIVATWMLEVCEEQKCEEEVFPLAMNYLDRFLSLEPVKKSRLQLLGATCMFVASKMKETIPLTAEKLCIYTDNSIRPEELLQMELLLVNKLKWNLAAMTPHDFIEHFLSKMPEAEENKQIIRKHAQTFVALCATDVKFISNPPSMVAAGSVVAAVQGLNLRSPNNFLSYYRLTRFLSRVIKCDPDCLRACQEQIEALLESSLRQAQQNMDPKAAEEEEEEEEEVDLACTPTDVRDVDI
pIC50: −log10 of the molar value.
Recorded pIC50, one value per entry.

Sample answers from the record:
molecule	pIC50
CN(C)C(=O)c1cc2cnc(Nc3cccc(-c4csc5c(=O)cc(N6CCOCC6)oc45)c3)nc2n1C1CCCC1	> 6.30
Cc1nc2c(F)cc(-c3nc(Nc4ccc(-c5csc6c(=O)cc(N7CCOCC7)oc56)cc4)ncc3F)cc2n1C(C)C	> 6.30
CC(C)(C)OC(=O)Nc1cc2cnc(Nc3ccc(-c4csc5c(=O)cc(N6CCOCC6)oc45)cc3)nc2n1C1CCCC1	> 6.30
CNC(=O)c1cc2cnc(Nc3ccc(C#Cc4csc5c(=O)cc(N6CCOCC6)oc45)cc3)nc2n1C1CCCC1	> 6.30
O=C(O)c1cc2cnc(Nc3ccc(-c4csc5c(=O)cc(N6CCOCC6)oc45)cc3)nc2n1C1CCCC1	> 6.30

Attention now turns to another entry.
Can you share its pIC50? I mean this molecule: CN(C)C(=O)c1cc2cnc(Nc3ccc(-c4csc5c(=O)cc(N6CCOCC6)oc45)c(C(=O)O)c3)nc2n1C1CCCC1 [Compound 15]
5.00 to 6.00

###

experimental.target: PI3K gamma (Homo sapiens)
Sequence (P48736 whole entry): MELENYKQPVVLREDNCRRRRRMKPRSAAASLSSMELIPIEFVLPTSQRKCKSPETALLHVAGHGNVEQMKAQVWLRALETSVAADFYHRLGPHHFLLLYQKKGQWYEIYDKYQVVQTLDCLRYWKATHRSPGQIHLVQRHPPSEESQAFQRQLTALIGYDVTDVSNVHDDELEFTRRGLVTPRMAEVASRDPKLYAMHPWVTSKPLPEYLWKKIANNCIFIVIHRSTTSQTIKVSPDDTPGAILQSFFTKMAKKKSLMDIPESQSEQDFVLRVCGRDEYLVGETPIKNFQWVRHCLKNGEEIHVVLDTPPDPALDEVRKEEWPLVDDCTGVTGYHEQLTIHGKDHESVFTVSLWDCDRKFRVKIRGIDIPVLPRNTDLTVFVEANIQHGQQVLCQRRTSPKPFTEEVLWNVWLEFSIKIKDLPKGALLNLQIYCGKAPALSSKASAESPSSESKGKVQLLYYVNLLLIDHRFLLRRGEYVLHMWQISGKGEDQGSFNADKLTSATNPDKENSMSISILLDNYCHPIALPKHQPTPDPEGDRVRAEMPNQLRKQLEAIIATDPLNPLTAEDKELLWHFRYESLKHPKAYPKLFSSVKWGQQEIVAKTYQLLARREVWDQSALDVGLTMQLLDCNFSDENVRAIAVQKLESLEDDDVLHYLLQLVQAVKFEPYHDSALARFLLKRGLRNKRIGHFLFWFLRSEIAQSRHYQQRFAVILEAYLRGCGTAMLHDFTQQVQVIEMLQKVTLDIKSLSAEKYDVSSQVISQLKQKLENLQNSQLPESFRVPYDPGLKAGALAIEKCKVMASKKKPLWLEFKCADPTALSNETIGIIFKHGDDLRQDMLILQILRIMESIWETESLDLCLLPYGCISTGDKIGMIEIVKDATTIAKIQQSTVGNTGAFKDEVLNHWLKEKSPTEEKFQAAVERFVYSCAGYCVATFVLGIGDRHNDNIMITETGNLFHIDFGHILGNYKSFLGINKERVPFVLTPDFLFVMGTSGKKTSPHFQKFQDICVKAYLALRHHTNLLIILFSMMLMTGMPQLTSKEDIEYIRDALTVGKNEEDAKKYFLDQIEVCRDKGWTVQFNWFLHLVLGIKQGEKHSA
protocol.summary: PI3K gamma in vitro inhibition
Format: biochemical
cond: IC50 inhibition PI3K gamma
# IC50 per record follows

compound	measured.metric	recorded.result
O=c1cc(N2CCOCC2)oc2c(-c3ccc4c(c3)OCCO4)csc12 [Compound 0]	IC50	< 0.5 µM

Turning now to a further record.
Recorded IC50 of COc1ccc(C#Cc2csc3c(=O)cc(N4CCOCC4)oc23)cc1 [Compound 5-2] , please.
0.5 to 1 µM

###

experimental.target: PI3K delta (Homo sapiens, UniProt O00329)
Sequence (O00329 whole entry): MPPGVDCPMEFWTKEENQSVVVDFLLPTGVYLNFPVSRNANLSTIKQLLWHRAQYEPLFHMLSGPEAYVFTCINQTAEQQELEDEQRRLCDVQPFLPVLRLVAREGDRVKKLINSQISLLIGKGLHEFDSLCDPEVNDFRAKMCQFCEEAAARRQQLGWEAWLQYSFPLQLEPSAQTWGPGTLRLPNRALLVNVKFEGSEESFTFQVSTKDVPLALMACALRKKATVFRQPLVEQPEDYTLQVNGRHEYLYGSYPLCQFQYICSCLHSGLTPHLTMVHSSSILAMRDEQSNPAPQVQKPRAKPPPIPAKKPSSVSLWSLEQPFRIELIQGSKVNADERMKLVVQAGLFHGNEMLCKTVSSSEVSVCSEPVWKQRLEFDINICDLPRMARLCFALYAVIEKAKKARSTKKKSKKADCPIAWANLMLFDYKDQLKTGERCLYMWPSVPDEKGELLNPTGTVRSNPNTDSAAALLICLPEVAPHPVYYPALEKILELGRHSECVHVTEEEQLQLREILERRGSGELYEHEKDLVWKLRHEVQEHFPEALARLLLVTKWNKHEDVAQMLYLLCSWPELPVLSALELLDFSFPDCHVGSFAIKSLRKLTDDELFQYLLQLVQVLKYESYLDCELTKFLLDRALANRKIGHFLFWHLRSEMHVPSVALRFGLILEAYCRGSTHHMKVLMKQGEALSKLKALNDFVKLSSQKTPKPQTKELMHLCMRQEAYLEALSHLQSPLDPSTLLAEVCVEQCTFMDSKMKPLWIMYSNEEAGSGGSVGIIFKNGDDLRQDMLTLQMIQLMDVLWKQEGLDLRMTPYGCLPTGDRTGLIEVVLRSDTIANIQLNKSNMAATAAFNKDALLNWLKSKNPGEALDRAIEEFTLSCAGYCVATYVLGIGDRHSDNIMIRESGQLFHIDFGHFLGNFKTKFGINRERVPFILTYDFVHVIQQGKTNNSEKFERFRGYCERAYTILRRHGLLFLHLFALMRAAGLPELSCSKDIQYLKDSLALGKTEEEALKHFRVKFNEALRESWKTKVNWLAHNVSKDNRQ
Sequence (P27986 whole entry partner): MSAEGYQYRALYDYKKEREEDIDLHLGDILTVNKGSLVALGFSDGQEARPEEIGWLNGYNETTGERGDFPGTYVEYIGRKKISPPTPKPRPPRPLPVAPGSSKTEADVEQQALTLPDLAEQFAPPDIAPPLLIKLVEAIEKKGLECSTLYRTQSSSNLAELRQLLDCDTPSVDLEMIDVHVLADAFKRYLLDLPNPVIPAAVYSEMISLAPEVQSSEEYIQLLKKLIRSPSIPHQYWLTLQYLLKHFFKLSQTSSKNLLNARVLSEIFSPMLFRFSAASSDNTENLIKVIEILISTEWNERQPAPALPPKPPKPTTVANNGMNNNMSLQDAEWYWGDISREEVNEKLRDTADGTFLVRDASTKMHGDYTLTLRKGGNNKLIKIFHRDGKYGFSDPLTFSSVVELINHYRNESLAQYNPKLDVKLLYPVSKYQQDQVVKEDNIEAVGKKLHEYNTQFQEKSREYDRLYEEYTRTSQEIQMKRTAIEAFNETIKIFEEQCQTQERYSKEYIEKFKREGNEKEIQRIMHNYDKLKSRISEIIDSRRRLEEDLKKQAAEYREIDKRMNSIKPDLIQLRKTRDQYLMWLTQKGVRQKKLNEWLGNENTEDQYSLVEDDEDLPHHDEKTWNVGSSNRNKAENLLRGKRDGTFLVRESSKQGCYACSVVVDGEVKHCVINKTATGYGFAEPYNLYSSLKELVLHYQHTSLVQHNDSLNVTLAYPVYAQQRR
protocol.summary: PI3K delta in vitro inhibition
measured.metric: IC50

Solved cases (5 shown):
Cc1nn(-c2ccnc(Nc3ccc(-c4csc5c(=O)cc(N6CCNCC6)oc45)cc3)n2)cc1CN1CC(O)C1 1000 to 10000 nM
Cc1nn(-c2ccnc(Nc3ccc(-c4csc5c(=O)cc(N6CCOCC6)oc45)cc3)n2)cc1CN1CCC1 < 500 nM
CC(=O)c1c(C)c2cnc(Nc3ccc(-c4csc5c(=O)cc(N6CCOCC6)oc45)cc3)nc2n(C2CCCC2)c1=O < 500 nM
Cc1nn(-c2ccnc(Nc3ccc(-c4csc5c(=O)cc(N6CCN(C(=O)OC(C)(C)C)CC6)oc45)cc3)n2)cc1CN1CC(O)C1 1000 to 10000 nM
COc1cc(C#Cc2csc3c(=O)cc(N4CCOCC4)oc23)cc(OC)c1 < 500 nM

State the recorded IC50 for this entry: `O=c1cc(N2CCOCC2)oc2c(C#Cc3ccccc3)csc12`
< 500 nM

Can you look up the measured IC50 of `O=c1cc(N2CCOCC2)oc2c(C#Cc3ccsc3)csc12` for me?
< 500 nM

Need IC50, item `COc1ccc(C#Cc2csc3c(=O)cc(N4CCOCC4)oc23)cc1`
< 500 nM

###

# BRD4-2 (Homo sapiens, UniProt O60885): IC50 values follow

Below are worked cases with known answers.
compound	IC50
O=C(NCc1cccnc1)c1cc(-c2csc3c(=O)cc(N4CCNCC4)oc23)cc2c1OCCO2 [Compound 3]	1 to 10 µM
Cc1nc2c(F)cc(-c3nc(Nc4ccc(-c5csc6c(=O)cc(N7CCOCC7)oc56)cc4)ncc3F)cc2n1C(C)C [Compound 25-1]	> 45 µM
O=c1cc(N2CCOCC2)oc2c(C#Cc3ccccc3)csc12 [Compound 5-4]	10 to 45 µM
CN(C)C(=O)c1cc2cnc(Nc3ccc(-c4csc5c(=O)cc(N6CCOCC6)oc45)c(C(=O)NCCN)c3)nc2n1C1CCCC1 [Compound 22]	1 to 10 µM
O=c1cc(N2CCOCC2)oc2c(C#Cc3ccsc3)csc12 [Compound 5-1]	10 to 45 µM
Cc1nn(-c2ccnc(Nc3ccc(-c4csc5c(=O)cc(N6CCN(C(=O)OC(C)(C)C)CC6)oc45)cc3)n2)cc1CN1CC(O)C1 [Compound 56]	> 45 µM

Consider now this further compound.
IC50 for Cc1nn(-c2ccnc(Nc3ccc(-c4csc5c(=O)cc(N6CCNCC6)oc45)cc3)n2)cc1CN1CCC1 [Compound 55] ?
> 45 µM

###

experimental.target: BRD4-1 (Homo sapiens, UniProt O60885)
measured.metric: IC50

Consider the worked cases shown below.
O=c1cc(N2CCOCC2)oc2c(C#Cc3ccccc3)csc12 1000 to 10000 nM
Cc1nn(-c2ccnc(Nc3ccc(-c4csc5c(=O)cc(N6CCOCC6)oc45)cc3)n2)cc1CN(C)CCO 1000 to 10000 nM
Cc1nn(-c2ccnc(Nc3ccc(-c4csc5c(=O)cc(N6CCN(C(=O)OC(C)(C)C)CC6)oc45)cc3)n2)cc1CN1CC(O)C1 1000 to 10000 nM

Consider the additional molecule presented here.
Fill blank: measured IC50 of the molecule `C=CS(=O)(=O)Nc1cccc(-c2csc3c(=O)cc(N4CCOCC4)oc23)c1` is ____.
< 500 nM
